Origin of measurements: PubChem BioAssay (NCATS)

experiment: Primary qHTS for inhibitors of SARS-S pseudo-typed particle cell entry (AID 1479145); conditions: SARS-S pseudotyped particle cell entry, luciferase reporter; series mostly up to 57.1 µM; also: nearly all actives have a fitted effect of over 45% in size
Records with an inconclusive call do not appear. The source made the active and inactive calls. Calls follow the shape of the full dose curve.
Possible outcomes: active, inactive

O=C1NS(=O)(=O)c2ccccc21    inactive
COc1ccc2cc(CCC(C)=O)ccc2c1    inactive
CN(C)[C@@H]1C(=O)C(C(N)=O)=C(O)[C@@]2(O)C(=O)C3=C(O)c4c(O)cccc4[C@@](C)(O)[C@H]3[C@H](O)[C@@H]12    inactive
CC(C)C[C@H](NC(=O)[C@@H](O)[C@H](N)Cc1ccccc1)C(=O)O    inactive
NCCCC(N)(C(=O)O)C(F)F (stereo unspecified)    inactive
Nc1nc2c(ncn2CCC(CO)CO)c(=O)[nH]1    inactive
CCOc1cc(NC(C)=O)ccc1C(=O)OC    inactive
Cn1c(NCCN(CCO)CCCc2ccc([N+](=O)[O-])cc2)cc(=O)n(C)c1=O    inactive
CC(C)(C)c1nnc(NS(=O)(=O)c2ccccc2)s1    inactive
CC1=C(C/C=C(\C)CCC[C@H](C)CCC[C@H](C)CCCC(C)C)C(=O)c2ccccc2C1=O    inactive
CN(C)CC/C=C1/c2ccccc2COc2ccc(CC(=O)O)cc21    inactive
CC(=O)Oc1cccc(C)c1    inactive
CN(C(=O)C(Cl)Cl)c1ccc(OC(=O)c2ccco2)cc1    inactive
CCC(=O)O[C@@H]1C=C2CCC3C(CCC4(C)C3CC[C@@H]4OC(=O)CC)C2CC1 (stereo partly specified)    inactive
O=C(O)c1ccccn1    inactive
NC1=NC(=O)N2CC12 (stereo unspecified)    inactive
CC(C)C[C@H](NC(=O)CNC(=O)c1cc(Cl)ccc1Cl)B(O)O    inactive
CCN(CC)c1ccc(C(=C2C=CC(=[N+](CC)CC)C=C2)c2cc(S(=O)(=O)O)ccc2S(=O)(=O)[O-])cc1    inactive
CNC(=O)c1cc(Oc2ccc(NC(=O)Nc3ccc(Cl)c(C(F)(F)F)c3)c(F)c2)ccn1    active
CC(=O)Nc1ccc(O)cc1    inactive
c1ccc2[nH]ccc2c1    inactive
CC(C)(C)NCC(O)c1ccc(O)c(CO)c1 (stereo unspecified)    inactive
O=C(O)CC(O)C(=O)O (stereo unspecified)    inactive
CNC(=O)c1ccc(N2C(=S)N(c3ccc(C#N)c(C(F)(F)F)c3)C(=O)C2(C)C)cc1F    active
S=c1[nH]c2ccccc2s1    inactive
CC[N+]1(CCOC(=O)C(O)(c2ccccc2)c2ccccc2)CCCCC1    inactive
NC(CO)C(=O)NNCc1ccc(O)c(O)c1O (stereo unspecified)    inactive
CCCCCCCCCCC(CO)CCCCCCCC (stereo unspecified)    inactive
O=[N+]([O-])c1ccc([As](=O)(O)O)cc1    inactive
O=[N+]([O-])/N=C1\NCCN1Cc1ccc(Cl)nc1    inactive
CCC(C)(Oc1ccc(C2(c3ccc(OC(C)(CC)C(=O)O)cc3)CCCCC2)cc1)C(=O)O (stereo unspecified)    inactive

###

target: Cytochrome P450 3A4 (Homo sapiens); assay: qHTS Assay for Inhibitors and Substrates of Cytochrome P450 3A4 (AID 884); conditions: recombinant CYP3A4, Luciferin-PPXE luminescence; series mostly up to 57.1 µM; also: nearly all actives have a fitted effect of over 50% in size
Records with an inconclusive call do not appear. Calls of active or inactive are those of the source. Calls come from the whole dose curve; as a rule, active = well fitted inhibition curve with a large enough effect; inconclusive = small, poorly fitted or top-dose-only effect; inactive = no such curve, though single readings can be large or run the other way.
Possible outcomes: yes = active, no = inactive

C1CCC(NC2CCCCC2)CC1    no
O=C(O)CCCOc1ccc(Cl)cc1Cl    no
O=C1CCCN1CC#CCN1CCCC1    no
COc1ccc(C(=O)c2c(C)n(CCN3CCOCC3)c3cc(I)ccc23)cc1    yes
CCCCCCCCc1ccc(O)cc1    no
CCOCCOC(C)=O    no
CCCCCCCCCCCCCCCC[N+](C)(C)C    no
O=C(O)C(Cl)Cl    no

###

Quick reference for Potency among some molecules
assay: qHTS of pediatric cancer cell lines to identify multiple opportunities for drug repurposing: Confirmatory screen for Saos-2 cells (AID 1347127); conditions: Saos-2 osteosarcoma cell viability; series mostly up to 45.9 µM; also: potency is read from the fitted curve at half-maximal effect; nearly all actives have a fitted effect of over 60% in size
Inconclusive results are not listed. Active and inactive are the calls of the source. Calls follow the shape of the dose curve; as a rule, active = well fitted cell-killing curve with a large enough effect; inconclusive = small, poorly fitted or top-dose-only effect, or effect the other way; inactive = no such curve, though single readings can be large or run the other way.
endpoint: Potency

O=c1[nH]c2ccc(Cl)cc2c(N[C@@H]2CN3CCC2CC3)c1-c1nc2ccccc2[nH]1    1310 nM (active)
CC(C)(O)C=CC(=O)[C@](C)(O)[C@H]1[C@H](O)C[C@]2(C)[C@@H]3CC=C4[C@@H](C=C(O)C(=O)C4(C)C)[C@]3(C)C(=O)C[C@@]12C    147 nM (active)
O=C(Nc1ccncc1)C(=O)c1cn(Cc2ccc(Cl)cc2)c2ccccc12    585 nM (active)
COc1cc2cc(c1Cl)N(C)C(=O)C[C@H](OC(=O)C(C)C)[C@]1(C)O[C@H]1[C@H](C)[C@@H]1C[C@@](O)(NC(=O)O1)[C@H](OC)C=CC=C(C)C2    26100 nM (active)
CC[C@@]1(O)C(=O)OCc2c1cc1n(c2=O)Cc2cc3ccccc3nc2-1    104 nM (active)
COc1ccc2c(c1)CN(C)CC2c1ccc(Cl)c(Cl)c1 (stereo unspecified)    23300 nM (active)

###

assay: qHTS assay for measurement of the activity of small molecule inhibitors on Zika virus induced Caspase-3 activity in human iPSC derived neural progenitor cells (hNPCs) (AID 1224857); details: hNPCs ZIKV-induced caspase-3/7, Caspase-Glo luminescence, 6 h; series mostly up to 45.7 µM; also: % of control where 0% means no effect; nearly all actives have a fitted effect of over 65% in size
Inconclusive results are not listed. Calls of active or inactive are those of the source. Calls follow the shape of the dose curve; as a rule, active = well fitted inhibition curve with a large enough effect; inconclusive = small, poorly fitted or top-dose-only effect; inactive = no such curve, though single readings can be large or run the other way.
endpoint: outcome

CCCCc1ccc(C(=O)O)nc1    inactive
CC(C)Oc1cccnc1N(C)C1CCN(Cc2ccccc2)CC1    inactive
CCOP(=O)(NC(C)C)Oc1ccc(SC)c(C)c1 (stereo unspecified)    inactive
CN1CCN(c2ccc([N+](=O)[O-])c3no[n+]([O-])c23)CC1    inactive
COc1ccc(CC2NCCc3cc(OC)c(OC)cc32)cc1OC (stereo unspecified)    inactive
c1ccc(C2(c3ccccc3)CC2C2=NCCN2)cc1 (stereo unspecified)    inactive

###

biological target: Flap endonuclease 1 (Homo sapiens); assay: qHTS Validation Assay for the Inhibitors of Human Flap endonuclease 1 (FEN1) (AID 488816); conditions: FEN1 nuclease activity, fluorogenic DNA substrate; series mostly up to 57.1 µM
The source made the active and inactive calls. Calls follow the shape of the dose curve; as a rule, active = well fitted inhibition curve with a large enough effect; inconclusive = small, poorly fitted or top-dose-only effect; inactive = flat fitted curve, though single readings scatter.
Possible outcomes: true for active, false for inactive

CCCN(CCC)C1CCc2ccc(O)cc2C1 (configuration not stated)    false
CNCCc1ccc(O)c(O)c1    true
C[C@@H](N)Cc1cnc[nH]1    false
S=C(NC1CCCCC1)N1CCC(c2cnc[nH]2)CC1    false
CC[C@@H](C(N)=O)N1CCCC1=O    false
O=C(Cc1ccc(Cl)c(Cl)c1)N1CCCCC1CN1CCCC1 (configuration not stated)    false
CN1C2CCC1CC(OC(=O)c1cc(Cl)cc(Cl)c1)C2 (configuration not stated)    false

###

test: qHTS for differential inhibitors of proliferation of Plasmodium falciparum line Dd2 (AID 1882); details: Plasmodium falciparum Dd2 proliferation inhibition; series mostly up to 28.7 µM; also: nearly all actives have a fitted effect of over 65% in size
Records with an inconclusive call do not appear. Calls of active or inactive are those of the source. Calls come from the whole dose curve; as a rule, active = well fitted inhibition curve with a large enough effect; inconclusive = small, poorly fitted or top-dose-only effect; inactive = flat fitted curve, though single readings scatter.
Possible outcomes: yes (1) = active, no (0) = inactive

COc1cc(C(O)CN)ccc1O (stereo not drawn)    no (0)
O=C(O)[C@@H]1CCN1    no (0)
C#CCOC(=O)C1=CCCN(C)C1    no (0)
COc1ccc2c(c[n+](C)c3c4cc5c(cc4ccc23)OCO5)c1OC    yes (1)
CNCCc1c[nH]c2ccc(O)cc12    no (0)
CN1C2CCC1CC(OC(=O)c1cc(Cl)cc(Cl)c1)C2 (stereo not drawn)    no (0)
NC1CC1c1ccccc1 (stereo not drawn)    no (0)
Cc1nc(-c2ccc(-c3ccc(C(=O)N4CCc5cc6c(cc54)C4(CCN(C)CC4)CO6)cc3)c(C)c2)no1    yes (1)
O=C(O)Cc1cnc[nH]1    no (0)
c1ccc(CCCN2CCN(CCOC(c3ccccc3)c3ccccc3)CC2)cc1    yes (1)
O=C1CCCN1CC#CCN1CCCC1    no (0)
CC1=NN=C(c2ccc(N)cc2)c2cc3c(cc2C1)OCO3    no (0)
O=C(Cc1ccc(Cl)c(Cl)c1)N1CCCCC1CN1CCCC1 (stereo not drawn)    yes (1)

###

Assay: High Content Imaging Cell-Based qHTS for Inhibitors of the mTORC1 Signaling Pathway in MEF (Tsc2-/-, p53-/-) Cells (AID 2666);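 also: percent of cells scored positive for phospho-rpS6 Ser235/236 immunostaining by imaging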
Settings: series mostly up to 38.3 µM
Source text: NIH Molecular Libraries Probe Production Centers Network [MLPCN] NIH Chemical Genomics Center [NCGC] Assay Submitter (PI): Blenis, John; Hoffman, Greg; Harvard University […] For quantitative high throughput analysis of mTORC1 signaling, we developed a cell-based assay for immuno-fluorescence based detection of rpS6 phosphorylation on the Acumen Explorer that will be used a platform for the primary small molecule screen. […]
Inconclusive results are not listed. The source made the active and inactive calls. The call rests on the fitted dose curve; in most records, active means well fitted inhibition curve with a large enough effect; inconclusive means small, poorly fitted or top-dose-only effect; inactive means flat fitted curve, though single readings scatter.
Possible outcomes: yes (active), no (inactive)

C#CCOC(=O)C1=CCCN(C)C1    no
C[C@@H](N)Cc1cnc[nH]1    no
C/C=C(/C)C(=O)O[C@H]1C(C)=C2[C@H]([C@@H]1OC(=O)CCCCCCC)[C@@](C)(OC(C)=O)C[C@H](OC(=O)CCC)[C@@]1(O)[C@H]2OC(=O)[C@@]1(C)O    yes
CC[C@@]1(O)C(=O)OCc2c1cc1n(c2=O)Cc2cc3ccccc3nc2-1    no
C[C@]12N[C@H](Cc3ccccc31)c1ccccc12    no
